Data origin, for the record: patent US20250304544A1

// reported IC50 for each item listed
system: Hep3B; assay: MTT cytotoxicity assay, Hep3B; assay type: cell-based; conditions: Homo sapiens, liver carcinoma, 48 hours, absolute IC50
The reply should be a number in nM, with the unit left off.

Reference set (2 entries):
INSERT INTO results (compound, recorded_endpoint, observed_value) VALUES
  ('C=C(C)C(=O)O[C@H]1C/C(C)=C/C(=O)/C=C(/C)[C@@H](O)[C@H]2OC(=O)C(=C)C12 (stereo partly shown) [NYH001, Molephantin]', 'IC50', 3200),
  ('C=C(C)C(=O)O[C@H]1C/C(C)=C/C(=O)/C=C(/C)[C@@H](OC(=O)c2cc(C(F)(F)F)cc(C(F)(F)F)c2)[C@H]2OC(=O)C(=C)C12 (stereo partly shown)', 'IC50', 2000);

Which IC50 reading was recorded for the compound C=C(C)C(=O)O[C@H]1C/C(C)=C/C(=O)/C=C(/C)[C@@H](OC(=O)c2ccccc2)[C@H]2OC(=O)C(=C)C12 (stereo partly shown) ?
911

Next compound up: C=C(C)C(=O)O[C@H]1C/C(C)=C/C(=O)/C=C(/C)[C@@H](OC(=O)c2ccc(C(F)(F)F)cc2)[C@H]2OC(=O)C(=C)C12 (stereo partly shown)
1850
